Reference source for all entries: ChEMBL document CHEMBL1127617

Test system: P388
ASSAY NOTES: In vitro cytotoxicity against P388 (murine leukemia) cell line.
Type: functional, cell-based
RUN CONDITIONS: Mus musculus
RECORDED ENDPOINT: IC50

For this compound ( CC(=O)O[C@@H]1C2=C(C)[C@@H](OC(=O)[C@H](O)[C@@H](NC(=O)OC(C)(C)C)C(C)O)C[C@@](O)([C@@H](OC(=O)c3ccccc3)[C@@H]3[C@]4(OC(C)=O)CO[C@@H]4C[C@H](O)[C@@]3(C)[C@H]1O)C2(C)C (single isomer, unassigned) ), measured IC50 is > 0.1 µg/mL

For this compound ( "CC(=O)O[C@@H]1C2=C(C)[C@@H](OC(=O)[C@H](O)[C@@H](NC(=O)OC(C)(C)C)[C@H](O)CO)C[C@@](O)([C@@H](OC(=O)c3ccccc3)[C@@H]3[C@]4(OC(C)=O)CO[C@@H]4C[C@H](O)[C@@]3(C)[C@H]1O)C2(C)C" ), measured IC50 is > 0.1 µg/mL

For this compound ( "COC[C@H](NC(=O)c1ccccc1)[C@@H](O)C(=O)O[C@H]1C[C@@]2(O)[C@@H](OC(=O)c3ccccc3)[C@@H]3[C@]4(OC(C)=O)CO[C@@H]4C[C@H](O)[C@@]3(C)[C@@H](O)[C@H](OC(C)=O)C(=C1C)C2(C)C" ), measured IC50 is > 0.1 µg/mL
